- Assay summary: Selectivity index, ratio of IC50 for cytotoxicity against human MRC5 cells to IC50 for antiproliferative activity against human MDA-MB-231 cells
- Format: toxicity, cell-based
- Test parameters: MRC5 cells and MDA-MB-231 cells, read-out: Ratio IC50
Reported metric: selectivity ratio

# selectivity ratio lookup, item `Cc1ccc(-c2nc(C(=O)NCCc3c[nH]c4ccccc34)cc3c2[nH]c2ccccc23)cc1` 6.1

Now give it for `CC(=O)c1nc(C(=O)NCc2cccc(O)c2)cc2c1[nH]c1ccccc12` too. > 1.81

Now give it for `CC(=O)c1nc(C(=O)Nc2ccc(N)cc2)cc2c1[nH]c1ccccc12` too. > 4.63

---

Below, each entry is listed with its recorded selectivity ratio.
- Assay summary: Selectivity index, ratio of IC50 for cytotoxicity against human MRC5 cells to IC50 for antiproliferative activity against human MDA-MB-231 cells
- Type: toxicity, cell-based
- Test parameters: MRC5 cells and MDA-MB-231 cells, read-out: Ratio IC50

In the examples that follow, each entry is paired with its recorded selectivity ratio.
{"Smiles string": "CC(=O)c1nc(C(=O)NCc2ccc3[nH]ccc3c2)cc2c1[nH]c1ccccc12", "Value reported": "> 3.36"}
{"Smiles string": "CC(=O)c1nc(C(=O)NCc2ccc(N)cc2)cc2c1[nH]c1ccccc12", "Value reported": "> 3.07"}
{"Smiles string": "COc1ccc(CNC(=O)c2cc3c([nH]c4ccccc43)c(C(C)=O)n2)cc1", "Value reported": "> 2.97"}
{"Smiles string": "CC(=O)c1nc(C(=O)NC(C)C)cc2c1[nH]c1ccccc12", "Value reported": "> 1.34"}

Alright, here's another compound for you.
# selectivity ratio lookup, item `O=C(NCCc1c[nH]c2ccccc12)c1cc2c([nH]c3ccccc32)c(-c2ccccc2)n1` > 2.6

---

Below, each entry is listed with its recorded selectivity ratio.
- Assay summary: Selectivity index, ratio of IC50 for cytotoxicity against human MRC5 cells to IC50 for antiproliferative activity against human MDA-MB-231 cells
- Format: toxicity, cell-based
- Test parameters: MRC5 cells and MDA-MB-231 cells, read-out: Ratio IC50

In the examples that follow, each entry is paired with its recorded selectivity ratio.
{"Smiles string": "CC(=O)c1nc(C(=O)NCCCN(C)C)cc2c1[nH]c1ccccc12", "selectivity ratio": "> 4.41"}
{"Smiles string": "CC(=O)c1nc(C(=O)NCc2c[nH]c3ccccc23)cc2c1[nH]c1ccccc12", "selectivity ratio": "> 3.51"}
{"Smiles string": "CC(=O)c1nc(C(=O)NCc2ccc(O)cc2)cc2c1[nH]c1ccccc12", "selectivity ratio": "> 14.2"}
{"Smiles string": "CC(=O)c1nc(C(=O)NCc2ccc(C(C)(C)C)cc2)cc2c1[nH]c1ccccc12", "selectivity ratio": "> 1.46"}
{"Smiles string": "CC(=O)c1nc(C(=O)NCc2ccc(Cl)cc2)cc2c1[nH]c1ccccc12", "selectivity ratio": "> 1.04"}

# selectivity ratio lookup, item `CC(=O)c1nc(C(=O)NCc2ccc(F)cc2)cc2c1[nH]c1ccccc12` > 2.02

Now give it for `CC(=O)c1nc(C(=O)N(Cc2ccccc2)Cc2ccccc2)cc2c1[nH]c1ccccc12` too. > 2.4

Now give it for `O=C(NCCc1c[nH]c2ccccc12)c1cc2c([nH]c3ccccc32)c(C(=O)c2ccc(Cl)cc2)n1` too. > 3.4
